Ref: paper PMC6719172

Below, each entry is listed alongside its reported KSV (Stern–Volmer quenching constant).
# ASSAY SYSTEM: CpLIP2 lipase (Candida parapsilosis)
# ASSAY NAME: Quenching of CpLIP2 intrinsic tryptophan fluorescence by flavonols (Stern–Volmer, Lehrer, van't Hoff analysis)
# Assay type: binding
# EXPERIMENTAL CONDITIONS: 298 K; CpLIP2 2.5 µM, pH 7.0; flavonol 2.5–25 µM (GAL 2.5–17.5 µM)

CHEM SMILES	KSV (Stern–Volmer quenching constant)
O=c1c(O)c(-c2ccc(O)cc2)oc2cc(O)cc(O)c12	2.1 ± 0.2 × 10^4 L·mol^−1
O=c1c(O)c(-c2ccc(O)c(O)c2)oc2cc(O)cc(O)c12	1.8 ± 0.1 × 10^4 L·mol^−1
O=c1c(O)c(-c2ccccc2)oc2cc(O)cc(O)c12	2.9 ± 0.1 × 10^4 L·mol^−1
O=c1c(O)c(-c2cc(O)c(O)c(O)c2)oc2cc(O)cc(O)c12	1.6 ± 0.1 × 10^4 L·mol^−1

----------
# ASSAY SYSTEM: CpLIP2 lipase (Candida parapsilosis, UniProt Q8NIN8)
# Sequence (Q8NIN8 entry or part of it): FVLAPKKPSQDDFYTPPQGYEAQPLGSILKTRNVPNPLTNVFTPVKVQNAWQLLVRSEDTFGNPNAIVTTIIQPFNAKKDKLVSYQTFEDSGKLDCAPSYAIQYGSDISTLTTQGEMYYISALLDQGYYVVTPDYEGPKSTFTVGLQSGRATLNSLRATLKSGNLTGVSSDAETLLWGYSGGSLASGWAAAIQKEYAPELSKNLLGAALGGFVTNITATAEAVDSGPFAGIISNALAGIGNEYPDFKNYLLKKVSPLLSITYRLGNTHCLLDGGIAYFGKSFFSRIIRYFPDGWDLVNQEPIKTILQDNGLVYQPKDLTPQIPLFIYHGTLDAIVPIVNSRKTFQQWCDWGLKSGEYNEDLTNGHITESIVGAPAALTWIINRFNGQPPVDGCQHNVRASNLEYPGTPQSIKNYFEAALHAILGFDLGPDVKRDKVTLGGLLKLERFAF
# ASSAY NAME: Quenching of CpLIP2 intrinsic tryptophan fluorescence by flavonols (Stern–Volmer, Lehrer, van't Hoff analysis)
# Format: binding
# EXPERIMENTAL CONDITIONS: 318 K; ΔG = ΔH − TΔS
RECORDED METRIC: ΔG (free energy change) (kcal/mol)

CHEM SMILES	RECORDED METRIC	ASSAY VALUE
O=c1c(O)c(-c2ccc(O)c(O)c2)oc2cc(O)cc(O)c12	ΔG (free energy change)	-10.8
O=c1c(O)c(-c2ccccc2)oc2cc(O)cc(O)c12	ΔG (free energy change)	-21.6
O=c1c(O)c(-c2ccc(O)cc2)oc2cc(O)cc(O)c12	ΔG (free energy change)	-10
O=c1c(O)c(-c2cc(O)c(O)c(O)c2)oc2cc(O)cc(O)c12	ΔG (free energy change)	-6.67

----------
# ASSAY SYSTEM: CpLIP2 lipase (Candida parapsilosis)
# ASSAY NAME: Inhibition of CpLIP2 hydrolytic activity (ethyl oleate hydrolysis, GC)
# Assay type: biochemical
# EXPERIMENTAL CONDITIONS: Ki, estimated after 1 min of pre-incubation; non-competitive or uncompetitive model
pKi: −log10 of the molar value.
Below, each entry is listed alongside its reported pKi.
RECORDED METRIC: pKi

COMPOUND	RECORDED METRIC	ASSAY VALUE
CCCCCCCCCCC[C@@H](C[C@@H]1OC(=O)[C@H]1CCCCCC)OC(=O)[C@H](CC(C)C)NC=O [THL, tetrahydrolipstatin, reference compound]	pKi	5.92
O=c1c(O)c(-c2ccc(O)cc2)oc2cc(O)cc(O)c12	pKi	5.40

----------
# ASSAY SYSTEM: CpLIP2 lipase (Candida parapsilosis)
# ASSAY NAME: Quenching of CpLIP2 intrinsic tryptophan fluorescence by flavonols (Stern–Volmer, Lehrer, van't Hoff analysis)
# Assay type: binding
# EXPERIMENTAL CONDITIONS: 308 K; CpLIP2 2.5 µM, pH 7.0; flavonol 2.5–25 µM (GAL 2.5–17.5 µM)
# Text: The fluorescence quenching spectra of CpLIP2 lipase submitted to increasing concentrations of GAL, KAE, QUE and MYR are shown in Figure 3. A remarkable quenching of the CpLIP2 fluorescence emission was observed. […] The fluorescence quenching is usually described by the linear Stern–Volmer Equations (2) and (3):(2) F0/F = 1 + Ksv [Q] = 1 + Kqτ0 [Q] […] The inaccessible or buried residues are responsible for the remaining fluorescence, which is probably independent of the quencher concentration. […]
Below, each entry is listed alongside its reported KSV (Stern–Volmer quenching constant).

CHEM SMILES	KSV (Stern–Volmer quenching constant)
O=c1c(O)c(-c2ccc(O)c(O)c2)oc2cc(O)cc(O)c12	1.6 ± 0.6 × 10^4 L·mol^−1
O=c1c(O)c(-c2cc(O)c(O)c(O)c2)oc2cc(O)cc(O)c12	1.3 ± 0.5 × 10^4 L·mol^−1
O=c1c(O)c(-c2ccc(O)cc2)oc2cc(O)cc(O)c12	1.9 ± 0.7 × 10^4 L·mol^−1
O=c1c(O)c(-c2ccccc2)oc2cc(O)cc(O)c12	2.4 ± 0.9 × 10^4 L·mol^−1

----------
Below, each entry is listed alongside its reported Kd.
# ASSAY SYSTEM: CpLIP2 lipase (Candida parapsilosis)
# ASSAY NAME: Quenching of CpLIP2 intrinsic tryptophan fluorescence by flavonols (Stern–Volmer, Lehrer, van't Hoff analysis)
# Assay type: binding
# EXPERIMENTAL CONDITIONS: Kd (dissociation constant), 298 K

CHEM SMILES	ASSAY SYSTEM	Kd (µM)
O=c1c(O)c(-c2ccccc2)oc2cc(O)cc(O)c12	CpLIP2 lipase (Candida parapsilosis)	8
O=c1c(O)c(-c2ccc(O)cc2)oc2cc(O)cc(O)c12	CpLIP2 lipase (Candida parapsilosis)	16
O=c1c(O)c(-c2ccc(O)c(O)c2)oc2cc(O)cc(O)c12	CpLIP2 lipase (Candida parapsilosis)	27
O=c1c(O)c(-c2cc(O)c(O)c(O)c2)oc2cc(O)cc(O)c12	CpLIP2 lipase (Candida parapsilosis)	10

----------
Below, each entry is listed alongside its reported KSV (accessible), Stern–Volmer quenching constant of the exposed W residues.
# ASSAY SYSTEM: CpLIP2 lipase (Candida parapsilosis)
# ASSAY NAME: Quenching of CpLIP2 intrinsic tryptophan fluorescence by flavonols (Stern–Volmer, Lehrer, van't Hoff analysis)
# Type: binding
# EXPERIMENTAL CONDITIONS: 308 K; Lehrer equation
RECORDED METRIC: KSV (accessible), Stern–Volmer quenching constant of the exposed W residues (L/mol)

COMPOUND	ASSAY SYSTEM	ASSAY VALUE
O=c1c(O)c(-c2ccc(O)cc2)oc2cc(O)cc(O)c12 [KAE, kaempferol]	CpLIP2 lipase (Candida parapsilosis)	170000
O=c1c(O)c(-c2ccccc2)oc2cc(O)cc(O)c12 [GAL, galangin]	CpLIP2 lipase (Candida parapsilosis)	360000
O=c1c(O)c(-c2cc(O)c(O)c(O)c2)oc2cc(O)cc(O)c12 [MYR, myricetin]	CpLIP2 lipase (Candida parapsilosis)	280000
O=c1c(O)c(-c2ccc(O)c(O)c2)oc2cc(O)cc(O)c12 [QUE, quercetin]	CpLIP2 lipase (Candida parapsilosis)	80000

----------
Below, each entry is listed alongside its reported Ka (association constant).
# ASSAY SYSTEM: CpLIP2 lipase (Candida parapsilosis, UniProt Q8NIN8)
# ASSAY NAME: Quenching of CpLIP2 intrinsic tryptophan fluorescence by flavonols (Stern–Volmer, Lehrer, van't Hoff analysis)
# Type: binding
# EXPERIMENTAL CONDITIONS: 308 K
RECORDED METRIC: Ka (association constant) (L/mol)

CHEM SMILES	RECORDED METRIC	ASSAY VALUE
O=c1c(O)c(-c2cc(O)c(O)c(O)c2)oc2cc(O)cc(O)c12	Ka (association constant)	53.09
O=c1c(O)c(-c2ccccc2)oc2cc(O)cc(O)c12	Ka (association constant)	502
O=c1c(O)c(-c2ccc(O)cc2)oc2cc(O)cc(O)c12	Ka (association constant)	476
O=c1c(O)c(-c2ccc(O)c(O)c2)oc2cc(O)cc(O)c12	Ka (association constant)	1824

----------
Below, each entry is listed alongside its reported ΔG (free energy change).
# ASSAY SYSTEM: CpLIP2 lipase (Candida parapsilosis, UniProt Q8NIN8)
# ASSAY NAME: Quenching of CpLIP2 intrinsic tryptophan fluorescence by flavonols (Stern–Volmer, Lehrer, van't Hoff analysis)
# Assay type: binding
# EXPERIMENTAL CONDITIONS: 298 K; ΔG = ΔH − TΔS

CHEM SMILES	ΔG (free energy change) (kcal/mol)
O=c1c(O)c(-c2ccc(O)cc2)oc2cc(O)cc(O)c12	-9.39
O=c1c(O)c(-c2ccccc2)oc2cc(O)cc(O)c12	-20.2
O=c1c(O)c(-c2ccc(O)c(O)c2)oc2cc(O)cc(O)c12	-10.1
O=c1c(O)c(-c2cc(O)c(O)c(O)c2)oc2cc(O)cc(O)c12	-6.26

----------
# ASSAY SYSTEM: CpLIP2 lipase (Candida parapsilosis, UniProt Q8NIN8)
# ASSAY NAME: Fluorescence resonance energy transfer between CpLIP2 and flavonols (Förster theory)
# Format: binding
# EXPERIMENTAL CONDITIONS: 2.5 µM, 308 K, pH 7.0
# Description: Fluorescence emission spectra of CpLIP2 lipase overlap the UV absorption spectrum of each flavonol studied, that may induce fluorescence resonance energy transfer (FRET) governed by the binding distance r between the protein behaving as energy donor and the flavonol energy acceptor. […]

CHEM SMILES	r/R0
O=c1c(O)c(-c2ccc(O)cc2)oc2cc(O)cc(O)c12	1.4
O=c1c(O)c(-c2ccc(O)c(O)c2)oc2cc(O)cc(O)c12	1.6
O=c1c(O)c(-c2cc(O)c(O)c(O)c2)oc2cc(O)cc(O)c12	1.2
O=c1c(O)c(-c2ccccc2)oc2cc(O)cc(O)c12	1.2
